Test system: PAPAVER Nudicaule (Iceland Poppy)
Test: Petal abscission delay, auxins/precursors with or without AC
Format: in vivo
Settings: auxin/precursor 10^-2 Molar solution; AC 3 g per hectare equivalent
Total Duration of Flowering (to petal fall) values, listed per item
READOUT TYPE: Total Duration of Flowering (to petal fall) (days)

>>> experimental_value("NC(=O)Cc1c[nH]c2ccccc12 [Indole-3-acetamide]")
11.9
>>> experimental_value("Nc1ccccc1C(=O)O")
12.2
>>> experimental_value("COC(=O)c1ccccc1N")
12.1
>>> experimental_value("CC(N)=O [Acetamide]")
11.7
>>> experimental_value("NCCc1c[nH]c2ccccc12")
11.7
>>> experimental_value("Nc1ccccc1C(=O)[O-].[Na+] [Anthranilic Acid monosodium salt]")
11.7
>>> experimental_value("N[C@@H](Cc1c[nH]c2ccccc12)C(=O)O")
10.8
>>> experimental_value("Nc1c(O)cccc1C(=O)O [3-Hydroxyanthranilic acid]")
11.6
>>> experimental_value("CC(=O)Nc1ccc(O)cc1 [AC, N-(4-hydroxypheyl)acetamide, reference compound]")
9.9
